target: T1, CD47 on CHOK1-CD47 cells (UniProt Q08722 19-323); test: flow cytometry on CHOK1-CD47 cells
T1 construct: whole, on cells; The rabbits were immunized with human CD47, so human is likely
T1 sequence (Q08722 19-323 limits assumed): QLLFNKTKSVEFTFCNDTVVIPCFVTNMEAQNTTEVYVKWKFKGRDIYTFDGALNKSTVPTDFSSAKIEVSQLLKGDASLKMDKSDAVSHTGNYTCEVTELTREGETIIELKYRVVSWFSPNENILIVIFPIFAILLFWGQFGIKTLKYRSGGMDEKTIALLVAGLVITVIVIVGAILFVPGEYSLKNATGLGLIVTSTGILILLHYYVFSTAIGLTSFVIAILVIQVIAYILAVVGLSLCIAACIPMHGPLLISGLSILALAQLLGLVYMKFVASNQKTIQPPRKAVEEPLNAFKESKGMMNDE
Output TRUE for records whose EC50 is lower than 3 nM, FALSE for records at or above 3 nM.

Consider the worked cases shown below.
Given 71D6 (antibody, V domains shown, Recombinant rabbit monoclonal antibody expressed in Expi293; it was detected with anti-human IgG Fc) VH: QSLEESGGDLVKPGASLTLTCTASGFSFSTSYWIYWVRQAPGKGLELIACIATGSDGSTYYASWASGRFTISKTSSTTVTLQMTSLTAADTATYFCAREAGNGVYNLWGQGTLVTVSS VL: AYDMTQTPASVEVAVGGTVTIKCQASESIRNALAWYQQKPGQPPKLLISGASKLASGVASRFKGSGSATEFTLTISDLECADAATYYCQQYYSSSNVDNGFGGGTEVVVK , is recorded EC50 strictly lower than 3 nM? FALSE

Item 70H1 (antibody, V domains shown, Rabbit-derived variable regions; also called 70H1.IgG1; 70H1 antibody) VH: QQQLEESGGGLVKPEGSLTLTCTASGFSFSSGYDMCWVRQAPGRGLEWIACIYTRSSGGTYYASWAKGRFTISKTSSTVDLRMTSLTAADTATYFCAGGRSSYRLNLWGQGALVTVSS VL: DVVMTQTPSPVEAAVGGTVTIKCQASQSISNELSWYQQKPGQPPKLLIYRASTLESGVSSRFKGSGSGTEFTLTISDLECADAATYYCQSTFYGDYGNAFGGGTEVVVK : EC50 beneath 3 nM, strictly? TRUE

Check if EC50 falls below 3 nM for 74F1 (antibody, V domains shown, Recombinant rabbit monoclonal antibody expressed in Expi293; it was detected with anti-human IgG Fc) VH: QQQLEESGGDLVKPEGSLTLTCTASGFSFSSRYNMCWVRQAPGKGLEWIACIYTGSSGSTYYASWAKGRFTISKTSSTVDLKMTSLTAADTATYFCAGGSYSYRLNLWGQGTLVTVSS VL: DVVMTQTPASVSTAVGGTVTIKCQASQSISNELSWYQQKPGQPPKLLIYRASTLESGVSSRFSGSGSGTEFTLTISDLECADAATYYCQATGYGDFGNAFGGGTEVVVK . TRUE

Item 70G1 (antibody, V domains shown, Recombinant rabbit monoclonal antibody expressed in Expi293; it was detected with anti-human IgG Fc) VH: QSVKESEGGLFKPTDTLTLTCTVSGFSLSNYAINWVRQAPGNGLEWIGIINGYGMTYYASWAKSRSTITRNTSENTVTLKLTSLTAADTATYFCARDRYGSYVGYSSDIWGPGTLVTVSS VL: AYDMTQTPASVEAAVGGTVTIKCQASQNISSRLAWYQQKPGQPPKLLIYGTSTLASGVPSRFRGSGSGTQFSLTISDLECADAATYYCQHGYYYSSSFTTYNAFGGGTEVVVK : EC50 beneath 3 nM, strictly? TRUE

# evaluate next
Consider the binder 69F12 (antibody, V domains shown, Recombinant rabbit monoclonal antibody expressed in Expi293; it was detected with anti-human IgG Fc) VH: QSVEESEGGLFKPTDTLTLTCTISGFSLSNYDMIWVRQAPGNGLEYIGIISSRDKAGHAAWAKRRSTITRNPKENTVTLKMTSLTVADTATYFCARRFSSMHGLDIWGPGTLVTVSS VL: AYDMTQTPSSVSAAVGGTVTIKCQASQSISNYLSWYQQKPGQPPKLLIYLASTLASGVPSRFKGSGSGTQFTLTISGVQCADAATYYCQQGYSSDSVDNVFGGGTEVVVK . Is its EC50 strictly less than 3 nM? TRUE

Attribution: patent EP4793287A1
